Structures can show the parent of a compound that is named as a salt.
Quick reference: melting point of the listed items.

Clc1cccc(N2CC3CCC(C2)N3CCc2ccc3ccncc3c2)n1
141 to 142 °C
FC(F)(F)c1cccc(N2CC3CCC(C2)N3CCc2ccc3ccncc3c2)n1 (as salt: hydrochloride) (hydrate or solvate)
258 to 260 °C
FC(F)(F)c1cccc(N2CCCN(CCc3ccc4ccncc4c3)CC2)c1 (as salt: oxalate)
135 to 137 °C

Query: melting point; subject: FC(F)(F)c1cccc(N2CCN(CCc3ccc4cccnc4c3)CC2)n1 (as salt: hydrochloride)
228 to 230 °C

* * *

Structures can show the parent of a compound that is named as a salt.
readoutKind: melting point

Below are worked cases with known answers.
FC(F)(F)c1cccc(N2CC3CCC(C2)N3CCc2ccc3ccncc3c2)c1 (as salt: oxalate)
97 to 99 °C
Clc1cccc(N2CCN(CCc3ccc4ccncc4c3)CC2)n1 (as salt: hydrochloride) (hydrate or solvate)
108 to 110 °C
Clc1cccc(N2CCN(CCc3ccc4cccnc4c3)CC2)n1 (as salt: oxalate)
170 to 172 °C
FC(F)(F)c1cccnc1N1CCN(CCc2ccc3cccnc3c2)CC1 (as salt: hydrochloride)
163 to 164 °C
FC(F)(F)c1ccc(N2CCN(CCc3ccc4cccnc4c3)CC2)nc1 (as salt: hydrochloride)
108 to 110 °C

Query: melting point; subject: FC(F)(F)c1cccc(N2C3CCC2CN(CCc2ccc4ccncc4c2)C3)n1 (as salt: hydrochloride) (hydrate or solvate)
158 to 160 °C

Query: melting point; subject: FC(F)(F)c1cccc(N2C3CCC2CN(CCc2ccc4ccncc4c2)C3)c1 (as salt: hydrochloride) (hydrate or solvate)
151 to 153 °C
